Each entry below carries its reported protein stability index.
B1: ZNF193 (parent)
chain: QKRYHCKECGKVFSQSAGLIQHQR

Variants of: B1
experiment-summary: protein stability index of a GFP-peptide fusion (GPS, HEK-293T) (PSI 1-6); higher = more stable;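 further: lentivirally expressed fusions sorted by FACS into six bins by GFP to DsRed ratio, PSI derived from sequencing read proportions per bin multiplied by bin number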
settings: c terminus: a fixed tail appended
Just the number, please, no unit after it.

For orientation, consider the following solved cases.
QKRYHCKECGKVFMQSAGLIQHQR ... 2.93
QKRYHCKECGKVFSQSAGLIQEQR ... 1.59
QRRYHCKECGKVFSQSAGLIQHQR ... 2.76
QKRYHCKECGKVFSQSAGLGQHQR ... 2.38
QKRYHCKECGKVFSQSAGLINHQR ... 3.02
QKRYHCKECGKVFSQSAGLIQPQR ... 1.64
QKRYHCKECYKVFSQSAGLIQHQR ... 1.67
QKRAHCKECGKVFSQSAGLIQHQR ... 1.99

**Query** Supply protein stability index value. Item: "QKRYHCKEMGKVFSQSAGLIQHQR"
**Result** 2.63

**Query** Supply protein stability index value. Item: "PKRYHCKECGKVFSQSAGLIQHQR"
**Result** 3.16

**Query** Supply protein stability index value. Item: "QKRYHCKECGKVFNQSAGLIQHQR"
**Result** 2.78

**Query** Supply protein stability index value. Item: "QKRYHCKECGHVFSQSAGLIQHQR"
**Result** 2.34

**Query** Supply protein stability index value. Item: "QKRYHCKNCGKVFSQSAGLIQHQR"
**Result** 2.99

**Query** Supply protein stability index value. Item: "LKRYHCKECGKVFSQSAGLIQHQR"
**Result** 2.62

**Query** Supply protein stability index value. Item: "QKRYHCKECGKVFSQSAGLIMHQR"
**Result** 2.55

**Query** Supply protein stability index value. Item: "QKRYHCKECGKVRSQSAGLIQHQR"
**Result** 2.17

**Query** Supply protein stability index value. Item: "QKRYHCKECGKVGSQSAGLIQHQR"
**Result** 1.87

**Query** Supply protein stability index value. Item: "SKRYHCKECGKVFSQSAGLIQHQR"
**Result** 2.88

**Query** Supply protein stability index value. Item: "QKRYHCKECGKVFSQSAWLIQHQR"
**Result** 1.68

**Query** Supply protein stability index value. Item: "QKRYHCKECGKVFSCSAGLIQHQR"
**Result** 3.93

**Query** Supply protein stability index value. Item: "QKRYHCKDCGKVFSQSAGLIQHQR"
**Result** 2.93

**Query** Supply protein stability index value. Item: "QKRYHCKECGKVFSQSAGLIQHQQ"
**Result** 2.48
